experiment: Ratio of drug concentration in brain to plasma in rat at 3.5 mg/kg, iv; assay type: ADME, organism-based; details: brain and plasma, read-out: BPR

STRUCTURE AS SMILES | Kp
CN[C@@H]1C[C@H]2O[C@@](C)([C@@H]1OC)n1c3ccccc3c3c4c(c5c6ccccc6n2c5c31)C(=O)N[C@H]4O | 0.5

* * *

assay: Ratio of drug concentration in brain to plasma in mouse at 75 mg/kg, po; assay type: ADME, organism-based; details: brain and plasma, read-out: BPR
QUANTITY KIND: Kp

STRUCTURE AS SMILES | QUANTITY KIND | MEASURED VALUE
Cc1cc(Nc2ncnc3ccc(NC4=NC(C)(C)CO4)cc23)ccc1Oc1ccn2ncnc2c1 | Kp | 0.5

* * *

Entries and their measured Kp uu follow.
assay: Ratio of drug concentration in brain to plasma in mouse assessed as unbound fraction; assay type: ADME, cell-free; details: brain and plasma, read-out: K(p,uu,brain)

STRUCTURE AS SMILES | Kp uu
CCN1CCN(Cc2ccc(Nc3ncc(F)c(-c4cc(F)c5nc(C)n(C(C)C)c5c4)n3)nc2)CC1 | 0.2
COc1cc2ncnc(Nc3ccc(F)c(Cl)c3)c2cc1OCCCN1CCOCC1 | 0.02

* * *

experiment: Ratio of AUC in brain to plasma in rat at 75 mg/kg, po; type: ADME, organism-based; conditions: brain and plasma, read-out: Ratio AUC

COMPOUND | Kp
CC(C)(O)CC(=O)NCCn1ccc2ncnc(Nc3ccc(Oc4cccc(C(F)(F)F)c4)c(Cl)c3)c21 [TAK-285] | 0.24

* * *

assay: Ratio of drug concentration in CSF to plasma in mouse assessed as unbound fraction; type: ADME, tissue-based; settings: CSF and plasma
QUANTITY KIND: Kp uu

STRUCTURE AS SMILES | QUANTITY KIND | MEASURED VALUE
COc1cc2ncnc(Nc3ccc(F)c(Cl)c3)c2cc1OCCCN1CCOCC1 | Kp uu | 0.09

* * *

Entries and their measured Kp follow.
assay: Ratio of drug concentration in brain to plasma in mouse; assay type: ADME, cell-free; conditions: brain and plasma, read-out: BPR

STRUCTURE AS SMILES | Kp
Cc1ccc(C(=O)Nc2ccc(CN3CCN(C)CC3)c(C(F)(F)F)c2)cc1C#Cc1cnc2cccnn12 | 1.6
COc1cc2c(Oc3ccc(NC(=O)C4(C(=O)Nc5ccc(F)cc5)CC4)cc3F)ccnc2cc1OCCCN1CCOCC1 | 0.2
